System: BGC-823
Experiment: Cytotoxicity in human BGC823 cells assessed as reduction in cell viability incubated for 72 hrs by MTT assay
Assay type: functional, cell-based
Details: BGC-823, 72 h
IC50 reference
Assay Readout: IC50 (µM)

>>> value_measured("C[C@H]1[C@H](C)CC[C@]2(C(=O)OCCCN3CCOCC3)CC[C@]3(C)C(=CC[C@@H]4[C@@]5(C)CC[C@H](O)C(C)(C)[C@@H]5CC[C@]43C)[C@H]12")
7.3
>>> value_measured("C[C@H]1[C@H](C)CC[C@]2(C(=O)OCCCN3CCCCC3)CC[C@]3(C)C(=CC[C@@H]4[C@@]5(C)CC[C@H](O)C(C)(C)[C@@H]5CC[C@]43C)[C@H]12")
7.2
>>> value_measured("C[C@H]1[C@H](C)CC[C@]2(C(=O)OCCCN3CCCC3)CC[C@]3(C)C(=CC[C@@H]4[C@@]5(C)CC[C@H](O)C(C)(C)[C@@H]5CC[C@]43C)[C@H]12")
7.6

---

Tested on: MCF7
Assay: Cytotoxicity in human MCF7 cells assessed as reduction in cell viability incubated for 24 hrs by MTT assay
Assay type: functional, cell-based
Settings: MCF7, 24 h
Assay Readout: IC50 (µM)

>>> value_measured("COc1cccc2c1C(=O)c1c(O)c3c(c(O)c1C2=O)C[C@@](O)(C(=O)CO)C[C@@H]3O[C@H]1C[C@H](N)[C@H](O)[C@H](C)O1")
0.49
>>> value_measured("COC(=O)/C=C/c1cccc(OC(=O)[C@@]2(C)CC[C@]3(C)CC[C@]4(C)C(=CC(=O)[C@@H]5[C@@]6(C)CC[C@H](OC(=O)[C@@H](N)CC[Se]C)C(C)(C)[C@@H]6CC[C@]54C)[C@H]3C2)c1")
3.48
>>> value_measured("CCOC(=O)/C=C/c1ccc(OC(=O)[C@@]2(C)CC[C@]3(C)CC[C@]4(C)C(=CC(=O)[C@@H]5[C@@]6(C)CC[C@H](OC(=O)[C@@H](N)CC[Se]C)C(C)(C)[C@@H]6CC[C@]54C)[C@H]3C2)c(OC)c1")
8.45
>>> value_measured("CCOC(=O)/C=C/c1ccc(OC)c(OC(=O)[C@@]2(C)CC[C@]3(C)CC[C@]4(C)C(=CC(=O)[C@@H]5[C@@]6(C)CC[C@H](OC(=O)[C@@H](N)CC[Se]C)C(C)(C)[C@@H]6CC[C@]54C)[C@H]3C2)c1")
6.93
>>> value_measured("CC1(C)CC[C@]2(C(=O)O)CC[C@]3(C)C(=CC[C@@H]4[C@@]5(C)CC[C@H](O[C@@H]6OC[C@H](O)[C@H](O[C@H]7O[C@H](CO)[C@@H](O)[C@H](O)[C@@H]7O)[C@H]6O)[C@@](C)(CO)[C@@H]5CC[C@]43C)[C@H]2C1")
19.3
>>> value_measured("COC(=O)/C=C/c1ccc(OC(=O)[C@@]2(C)CC[C@]3(C)CC[C@]4(C)C(=CC(=O)[C@@H]5[C@@]6(C)CC[C@H](OC(=O)[C@@H](N)CC[Se]C)C(C)(C)[C@@H]6CC[C@]54C)[C@H]3C2)cc1")
6.02
>>> value_measured("CC1(C)CC[C@@]23CC[C@]4(C)[C@@](OC2=O)([C@@H]3C1)[C@@H](Br)C[C@@H]1[C@@]2(C)CC/C(=N\\O)C(C)(C)[C@@H]2CC[C@]14C")
6.58
